- tgt: human GLP-1R receptor (Homo sapiens)
- Sequence (P43220 24-463): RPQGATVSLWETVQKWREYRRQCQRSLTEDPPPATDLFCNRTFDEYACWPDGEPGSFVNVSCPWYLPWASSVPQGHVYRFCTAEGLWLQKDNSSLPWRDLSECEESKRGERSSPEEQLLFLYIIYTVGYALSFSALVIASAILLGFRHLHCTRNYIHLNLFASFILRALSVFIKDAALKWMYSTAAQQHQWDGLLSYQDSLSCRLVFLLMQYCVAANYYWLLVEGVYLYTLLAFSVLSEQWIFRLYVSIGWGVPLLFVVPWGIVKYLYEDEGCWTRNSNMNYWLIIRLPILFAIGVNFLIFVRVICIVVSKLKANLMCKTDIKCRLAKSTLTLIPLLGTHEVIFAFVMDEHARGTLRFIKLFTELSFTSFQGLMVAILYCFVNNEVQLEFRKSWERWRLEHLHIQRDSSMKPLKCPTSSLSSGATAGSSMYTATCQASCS
- assay protocol: GLP-1R low expression cell assay (cAMP TR-FRET, CHO-K1_hGLP-1Rlow_clone10 cells)
- setup conditions: cAMP TR-FRET, 30 min at 25° C.
pEC50: −log10 of the molar value.
measure name: pEC50

Look over these answered cases.
INSERT INTO results (entry_smiles, measure_name, recorded_measurement) VALUES
  ('[2H]C([2H])(C)Oc1cc(C(=O)O)cc2c1nc(CN1CCC(c3cccc(OCc4ccc(C#N)cc4F)n3)CC1)n2C', 'pEC50', '> 8.00'),
  ('Cn1c(CN2CCC(c3cccc(OCc4c(F)cc(Cl)cc4F)n3)CC2)nc2c(OC(F)F)cc(C(=O)O)cc21', 'pEC50', '7.00 to 8.00');

Item under review: N#Cc1ccc(COc2cccc(C3CCN(Cc4nc5c(O)c(C(=O)O)ccc5n4C[C@@H]4CCO4)CC3)n2)c(F)c1 . Reported pEC50?
> 8.00

Check Cn1c(CN2CCC(c3cccc(OCc4ccc(Cl)cc4F)n3)CC2)nc2ccc(C(=O)O)c(O)c21 too.
6.00 to 7.00
